Measured on: Glutamate NMDA receptor
Measurement notes: Negative allosteric modulation of NMDA receptor in rat cerebellar granule cells assessed as suppression of 100 uM glutamate and 30 uM glycine induced-current cotreated with 100 uM NMDA and 50 uM glycine by patch clamp recording method
Endpoint: IC50 (µM)
Answers are plain numbers, in µM.

Q. // lookup IC50 | system=Glutamate NMDA receptor | key= CCOC(=O)c1c(NC(=O)CC2SC(N)=NC2=O)sc2c1CCC(C)C2 (racemic)
A. 3.4

* * *

Measured on: Glutamate NMDA receptor; Grin1/Grin2c (Rattus norvegicus) (UniProt P35439+Q00961)
Measurement notes: Negative allosteric modulation of rat GluN1a/GluN2C receptor expressed in Xenopus laevis oocytes assessed as suppression of 100 uM glutamate and 30 uM glycine induced-current at saturating compound level by voltage clamp recording method
Assay type: cell-based
Endpoint: inhibition (%)
One number for each entry, in %.

Example compounds with recorded inhibition:
>  <Compound>
CCOC(=O)c1c(NC(=O)CC2SC(=N)NC2=O)sc2c1CCC(F)(F)C2 (racemic)

>  <inhibition (%)>
75

$$$$
>  <Compound>
CCOC(=O)c1cc(C)sc1NC(=O)CC1SC(=N)NC1=O (racemic)

>  <inhibition (%)>
98

$$$$
>  <Compound>
CCOC(=O)c1c(NC(=O)CC2SC(=N)NC2=O)sc2c1CCC(C)(C)C2 (racemic)

>  <inhibition (%)>
89

$$$$
>  <Compound>
CCOC(=O)c1c(NC(=O)CC2SC(=N)NC2=O)sc2c1CCSC2 (racemic)

>  <inhibition (%)>
88

$$$$
>  <Compound>
COC(=O)c1c(NC(=O)CC2SC(=N)NC2=O)sc(C)c1C (racemic)

>  <inhibition (%)>
88

$$$$

Take each entry in turn and give its inhibition.
1. CCOC(=O)c1c(NC(=O)CC2SC(=N)NC2=O)sc2c1CCC(CC)C2 (racemic)
2. CCc1c(C)sc(NC(=O)CC2SC(=N)NC2=O)c1C(=O)OC (racemic)
3. CCOC(=O)c1c(NC(=O)CC2SC(N)=NC2=O)sc2c1CCC(C)C2 (racemic)
4. COC(=O)c1ccsc1NC(=O)CC1SC(=N)NC1=O (racemic)
5. CCOC(=O)c1cc(CC)sc1NC(=O)CC1SC(=N)NC1=O (racemic)
6. COC(=O)c1c(NC(=O)CC2SC(N)=NC2=O)sc2c1CCCC2 (racemic)
7. CCOC(=O)c1c(NC(=O)CC2SC(=N)NC2=O)sc2c1CCCC2 (racemic)
8. N#Cc1c(NC(=O)CC2SC(=N)NC2=O)sc2c1CCCC2 (racemic)

A.
[80, 85, 80, 100, 97, 88, 53, 59]

Give inhibition for all compounds that follow.
1. CCOC(=O)c1c(NC(=O)CC2SC(=N)NC2=O)sc(C)c1C (racemic)
2. COC(=O)c1c(NC(=O)CC2SC(N)=NC2=O)sc2c1CCC(C)C2 (racemic)
3. CCOC(=O)c1c(NC(=O)CC2SC(=N)NC2=O)sc2c1CCOC2 (racemic)
4. CCc1cc(C(=O)OC)c(NC(=O)CC2SC(N)=NC2=O)s1 (racemic)

A.
1. 77
2. 95
3. 59
4. 97

* * *

Measured on: Glutamate NMDA receptor; Grin1/Grin2b (Rattus norvegicus) (UniProt P35439+Q00960)
Measurement notes: Negative allosteric modulation of rat GluN1a/GluN2B receptor expressed in Xenopus laevis oocytes assessed as suppression of 100 uM glutamate and 30 uM glycine induced-current at saturating compound level by voltage clamp recording method
Assay type: cell-based
# inhibition binned as bottom end = under 70%, midrange = from 70% up to 80%, top end = 80% and over

Some entries whose results are on file:
>  <Molecule>
CCOC(=O)c1c(NC(=O)CC2SC(=N)NC2=O)sc2c1CCC(CC)C2 (racemic)

>  <Assigned category>
bottom end

$$$$
>  <Molecule>
COC(=O)c1c(NC(=O)CC2SC(N)=NC2=O)sc2c1CCCC2 (racemic)

>  <Assigned category>
top end

$$$$
>  <Molecule>
CCc1c(C)sc(NC(=O)CC2SC(=N)NC2=O)c1C(=O)OC (racemic)

>  <Assigned category>
midrange

$$$$
>  <Molecule>
CCOC(=O)c1c(NC(=O)CC2SC(=N)NC2=O)sc2c1CCCC2 (racemic)

>  <Assigned category>
bottom end

$$$$
>  <Molecule>
CCOC(=O)c1c(NC(=O)CC2SC(=N)NC2=O)sc2c1CCC(C)(C)C2 (racemic)

>  <Assigned category>
bottom end

$$$$

Q. Category lookup for the molecule CCOC(=O)c1cc(CC)sc1NC(=O)CC1SC(=N)NC1=O (racemic)
A. top end

Q. Moving on to the next molecule: CCc1cc(C(=O)OC)c(NC(=O)CC2SC(N)=NC2=O)s1 (racemic)
A. top end

Q. Query CCOC(=O)c1c(NC(=O)CC2SC(=N)NC2=O)sc2c1CCC(F)(F)C2 (racemic) next
A. midrange

Q. And COC(=O)c1c(NC(=O)CC2SC(N)=NC2=O)sc2c1CCC(C)C2 (racemic) ?
A. midrange

Q. Repeat with COC(=O)c1c(NC(=O)CC2SC(=N)NC2=O)sc(C)c1C (racemic)
A. bottom end

Q. Check CCOC(=O)c1cc(C)sc1NC(=O)CC1SC(=N)NC1=O (racemic) too.
A. top end

* * *

Measured on: Ionotropic glutamate receptor NMDA 1/2D (Rattus norvegicus, UniProt P35439+Q62645)
Sequence (Q62645 whole entry, other chains not shown): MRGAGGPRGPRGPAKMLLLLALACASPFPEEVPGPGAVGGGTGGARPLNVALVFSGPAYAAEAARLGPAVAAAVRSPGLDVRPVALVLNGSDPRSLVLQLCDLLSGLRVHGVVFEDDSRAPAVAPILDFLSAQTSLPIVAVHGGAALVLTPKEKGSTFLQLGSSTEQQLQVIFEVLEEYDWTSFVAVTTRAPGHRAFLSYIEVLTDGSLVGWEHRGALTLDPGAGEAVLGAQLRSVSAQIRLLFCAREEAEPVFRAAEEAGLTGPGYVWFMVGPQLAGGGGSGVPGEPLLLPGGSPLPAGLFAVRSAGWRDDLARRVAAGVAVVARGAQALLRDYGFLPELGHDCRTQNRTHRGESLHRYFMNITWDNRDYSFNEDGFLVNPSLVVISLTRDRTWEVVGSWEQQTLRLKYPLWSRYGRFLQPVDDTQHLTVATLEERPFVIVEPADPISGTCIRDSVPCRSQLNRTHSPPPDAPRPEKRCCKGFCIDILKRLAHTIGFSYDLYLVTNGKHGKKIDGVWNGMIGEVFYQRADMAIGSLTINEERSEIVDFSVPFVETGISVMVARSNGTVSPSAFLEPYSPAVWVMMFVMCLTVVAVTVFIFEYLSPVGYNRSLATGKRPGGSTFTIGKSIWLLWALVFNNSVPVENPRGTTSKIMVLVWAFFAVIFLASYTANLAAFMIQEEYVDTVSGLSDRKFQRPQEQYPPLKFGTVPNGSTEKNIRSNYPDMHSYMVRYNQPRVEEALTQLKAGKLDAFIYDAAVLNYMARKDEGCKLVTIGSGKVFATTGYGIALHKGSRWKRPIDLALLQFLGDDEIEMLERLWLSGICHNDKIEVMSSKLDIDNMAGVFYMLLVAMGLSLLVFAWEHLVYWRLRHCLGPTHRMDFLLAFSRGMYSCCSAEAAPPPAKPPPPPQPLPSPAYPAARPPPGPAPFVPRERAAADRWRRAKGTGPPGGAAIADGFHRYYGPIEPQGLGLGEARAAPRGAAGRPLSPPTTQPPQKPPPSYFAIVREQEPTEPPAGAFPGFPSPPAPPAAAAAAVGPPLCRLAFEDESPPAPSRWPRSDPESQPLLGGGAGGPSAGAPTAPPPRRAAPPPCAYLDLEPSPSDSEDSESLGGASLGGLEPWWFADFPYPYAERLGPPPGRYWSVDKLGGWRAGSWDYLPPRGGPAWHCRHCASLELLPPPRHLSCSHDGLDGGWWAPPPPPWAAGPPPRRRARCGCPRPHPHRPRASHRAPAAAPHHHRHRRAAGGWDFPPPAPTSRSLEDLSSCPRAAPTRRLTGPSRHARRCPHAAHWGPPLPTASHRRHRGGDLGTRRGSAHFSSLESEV
Measurement notes: Negative allosteric modulation of rat GluN1a/GluN2D receptor expressed in Xenopus laevis oocytes assessed as suppression of 100 uM glutamate and 30 uM glycine induced-current by voltage clamp recording method
Endpoint: pIC50
One number for each entry, as −log10 of the molar value.

>  <Compound>
CCOC(=O)c1c(NC(=O)CC2SC(=N)NC2=O)sc2c1CCC(C)(C)C2 (racemic)

>  <Measured on>
Ionotropic glutamate receptor NMDA 1/2D (Rattus norvegicus, UniProt P35439+Q62645)

>  <pIC50>
5.06

$$$$
>  <Compound>
COC(=O)c1c(NC(=O)CC2SC(=N)NC2=O)sc(C)c1C (racemic)

>  <Measured on>
Ionotropic glutamate receptor NMDA 1/2D (Rattus norvegicus, UniProt P35439+Q62645)

>  <pIC50>
4.98

$$$$
>  <Compound>
CCOC(=O)c1c(NC(=O)CC2SC(=N)NC2=O)sc2c1CCSC2 (racemic)

>  <Measured on>
Ionotropic glutamate receptor NMDA 1/2D (Rattus norvegicus, UniProt P35439+Q62645)

>  <pIC50>
6.10

$$$$
>  <Compound>
CCOC(=O)c1c(NC(=O)CC2SC(=N)NC2=O)sc2c1CCOC2 (racemic)

>  <Measured on>
Ionotropic glutamate receptor NMDA 1/2D (Rattus norvegicus, UniProt P35439+Q62645)

>  <pIC50>
5.68

$$$$
>  <Compound>
CCOC(=O)c1c(NC(=O)CC2SC(=N)NC2=O)sc(C)c1C (racemic)

>  <Measured on>
Ionotropic glutamate receptor NMDA 1/2D (Rattus norvegicus, UniProt P35439+Q62645)

>  <pIC50>
4.89

$$$$

Query compound follows.
Q. Any idea what pIC50 was measured for CCOC(=O)c1c(NC(=O)CC2SC(=N)NC2=O)sc2c1CCC(F)(F)C2 (racemic) ?
A. 5.82

* * *

Would you mind telling me the reported inhibition of each entry?
Measured on: Glutamate NMDA receptor; Grin1/Grin2b (Rattus norvegicus) (UniProt P35439+Q00960)
Measurement notes: Negative allosteric modulation of rat GluN1a/GluN2B receptor expressed in Xenopus laevis oocytes assessed as suppression of 100 uM glutamate and 30 uM glycine induced-current at saturating compound level by voltage clamp recording method
Assay type: cell-based
One number for each entry, in %.

// known answers, use as guide
>  <Compound>
CCOC(=O)c1c(NC(=O)CC2SC(=N)NC2=O)sc2c1CCSC2 (racemic)

>  <Measured on>
Glutamate NMDA receptor; Grin1/Grin2b (Rattus norvegicus) (UniProt P35439+Q00960)

>  <Reading>
78

$$$$
>  <Compound>
CCOC(=O)c1c(NC(=O)CC2SC(=N)NC2=O)sc2c1CCOC2 (racemic)

>  <Measured on>
Glutamate NMDA receptor; Grin1/Grin2b (Rattus norvegicus) (UniProt P35439+Q00960)

>  <Reading>
69

$$$$

Now take the following compound into account.
Q. Can you look up the measured inhibition of CCOC(=O)c1c(NC(=O)CC2SC(N)=NC2=O)sc2c1CCC(C)C2 (racemic) for me?
A. 70
